# Tested on: Vero cells
# ASSAY_PROCEDURE: Cytotoxicity / cell viability assay (CCK-8)
# PARTICULARS: Vero cells, 1 μM-1 mM, calculated using Graphpad Prism
MEASUREMENT_KIND: CC50

CC50 of COC(=O)C(CSSC(=O)c1ccccc1)NC(=O)c1ccccc1 (stereo not shown) , assay on Vero cells, is ~1 mM
